Test system: HOP-18
Experiment: NCI tumour cell line growth inhibition, 48 h
The source made the active and inactive calls. Rule as the data show it: active = GI50 up to about 1.1 µM and inactive = higher.
The following compounds are shown together with reported GI50 values.
observed-property: GI50

| compound | val |
| --- | --- |
| NC1=NN(c2ccccc2)C(=O)C1/C(=N\NC(=O)c1cc2ccccc2cc1O)C(=O)Nc1ccc(Cl)c(Cl)c1 (stereo unspecified) | 31.6 µM (inactive) |
| C[S+](C)C1(c2ccccc2)C(=O)c2ccccc2C1=O | > 100 µM (inactive) |
| O=S(O)CCCSSc1ccccc1 | > 100 µM (inactive) |
| CC(C)=C1CCC(CN2CCCC2)C1=O (stereo unspecified) | 17.5 µM (inactive) |
| COc1ccc2c(c1)C=C(C(C)(C)C)NS2(=O)=O | > 100 µM (inactive) |
| C[C@H](NC(=O)n1c2ccccc2c2ccccc21)C(=O)O | > 100 µM (inactive) |

* * *

Test system: CAKI-1
Assay: NCI tumour cell line growth inhibition, 48 h
Activity calls are given as the source filed them. Rule as the data show it: active = GI50 up to about 1.1 µM and inactive = higher. Where a SMILES comes first, the peptide text is derived from it. The star is where a group is joined. Boc = CC(C)(C)OC(=O)*
Outcomes: active, inactive

| compound | classification |
| --- | --- |
| Cc1ccc(S(=O)(=O)N2CCC(C(=O)O)(c3ccccc3)CC2)cc1 | inactive |
| COc1cc(Nc2c(C#N)[n+]([O-])c3ccccc3[n+]2[O-])cc(OC)c1OC | inactive |
| N=C(N)SCc1cccc2c(=O)cc(-c3ccccc3)oc12 | inactive |
| Cc1nn(C(=O)Cc2ccccc2)c2c1C(c1ccccc1[N+](=O)[O-])SC(=N)N2 (configuration not stated) | inactive |
| COC(=O)C1=COC(C)C2CN3CCc4c([nH]c5cc(OC)c(OC)cc45)C3CC12 (configuration not stated) | inactive |
| O=C1C(=Cc2ccco2)C(=O)C2CCCCC12 (configuration not stated) | inactive |
| NS(=O)(=O)c1ccc(NCc2cnc3ccccc3n2)cc1 | inactive |
| CO[C@@H]1[C@H](OC(=O)NC(=O)CCl)CC[C@]2(CO2)[C@H]1[C@@]1(C)O[C@@H]1CC=C(C)C | inactive |
| C=C(CN(C)C)C(=O)c1ccc(Oc2ccccc2)cc1 | inactive |
| Cc1ccc2c3ccc4c(c3n(C)c2c1)C(=O)C=CC4=O | inactive |
| CN(C)c1ccc(-c2nc(N)nc3c2CCCC3)cc1 | inactive |
| C[C@]12CC[C@@H]3c4ccc(O)cc4CC[C@H]3[C@@H]1C/C(=C\c1ccc(C#N)cc1)C2=O | inactive |
| COC(=O)C(Cc1c[nH]c2ccccc12)NC(=O)C(Cc1c[nH]c2ccccc12)NC(=O)C(Cc1c[nH]c2ccccc12)NC(=O)C(Cc1c[nH]c2ccccc12)NC(=O)C(Cc1c[nH]c2ccccc12)NC(=O)C(Cc1c[nH]c2ccccc12)NC(=O)C(Cc1c[nH]c2ccccc12)NC(=O)C(Cc1c[nH]c2ccccc12)NC(=O)OC(C)(C)C (configuration not stated) (Boc-WWWWWWWW-OMe; configuration not given here) | inactive |
| O=C(CC(=O)N(C(=O)/C=C\c1ccccc1)c1ccc(Cl)cc1)N1N=C(c2ccccc2)C(/N=N/c2cccc([N+](=O)[O-])c2)C1=O (configuration not stated) | inactive |
| C[C@H](C(=O)C12CC3CC(CC(C3)C1)C2)[C@H](O)c1ccccc1 | inactive |
| CCSc1nnc2c(-c3ccccc3)n[nH]c2n1 | inactive |
| N=C1C(O)C2(I)c3ccccc3N3C(=N)C(O)C4c5ccccc5N1C4C32 (configuration not stated) | inactive |
| CCN(CC)C(=O)COc1ccc(Br)cc1Br | inactive |
| CCOC(=O)CSc1nc(N)c2c(-c3ccc(OC)c(OC)c3)c3c(nc2n1)CCCC3 | inactive |
| CN1CCN2c3ccccc3CC(C#N)(C#N)C2C1 (configuration not stated) | inactive |
| CC(=O)O[C@H]1CC[C@@]2(C)C(CC[C@]3(C)C2CC[C@]2(C)Oc4c(C)cc(O)cc4C[C@@H]23)C1(C)C (some centres not stated) | inactive |
| O=C1/C=C(/c2ccc(O)cc2)[C@@H](OC2OC(CO)C(O)C(O)C2O)Cc2ccc(O)cc2O1.O=C1/C=C(/c2ccc(O)cc2)[C@H](O)Cc2ccc(O[C@@H]3OC(CO)C(O)C(O)C3O)cc2O1 (some centres not stated) | inactive |
| NC1=CN2c3ccccc3N(CC(=O)N3CCOCC3)C2C=C1 (configuration not stated) | inactive |
| COC1/C=C\C=C(/C)C(=O)NC2=CC(=O)C(NCCCl)=C(CC(C)CC(OC)C(O)C(C)/C=C(/C)C1OC(N)=O)C2=O (configuration not stated) | active |
| Cc1cnc2[nH]c(-c3cccc(Cl)c3)cc(=O)c2c1 | active |
| COc1cc(OC)cc(-c2cc(O)c3cc4c(cc3n2)OCO4)c1 | active |
| C[C@]12CC[C@@H]3c4ccc(OCCN5CCCC5)cc4CC[C@H]3[C@@H]1CCC2=O | inactive |
| O=C(O)COc1ccc2c3c1C(=O)CCC3CO2 (configuration not stated) | inactive |
| CC12CC(Sc3ccccc3N1)c1ccccc1O2 (configuration not stated) | inactive |
| CC(C)(C)N1Cc2ccccc2/C(=C/Sc2ccccc2)C1=O | inactive |
| O=C(c1ccccc1)N1CCC(CC2(c3cc4ccccc4[nH]3)OCCO2)CC1 | inactive |
| CC(=O)Nc1ccc(-c2nnc(SCC(=O)Nc3ccccc3Cl)o2)cc1 | inactive |
| COC(=O)Cc1cc(OC)c(OC)cc1Br | inactive |
| CN1CCN(Cc2cc3c(nn2)-c2ccccc2C3=O)CC1 | inactive |
| O=C1c2ccccc2C(=O)N1CCc1nc(-c2ccccc2)c[nH]1 | inactive |
| CC(C)(C)N1CC2(CCCCC2)C1=O | inactive |
| C/C=C\C(CC(=O)NCCC1CN(C(=O)OCc2ccccc2)c2ccccc21)CC(=O)OC (configuration not stated) | inactive |

* * *

The following compounds are shown together with reported GI50 values.
Test system: SF-268
Assay: NCI tumour cell line growth inhibition, 48 h
Activity calls are given as the source filed them. Cut-off read from the data, not from the text of the source: active = GI50 up to about 1.1 µM and inactive = higher.
observed-property: GI50

| mol | observed-property | val |
| --- | --- | --- |
| Cc1ccc(-c2nc(Cc3n[nH]c(-c4ccc(C)cc4)n3)n[nH]2)cc1 | GI50 | 6.14 µM (inactive) |
| O=C(/C=C1\C[C@H]2C=Nc3ccccc3C(=O)N2C1)NCCCCNC(=O)/C=C1\C[C@H]2C=Nc3ccccc3C(=O)N2C1 | GI50 | 9.95 µM (inactive) |
| CS/C(=N/C#N)NCCc1c[nH]c2ccccc12 | GI50 | > 100 µM (inactive) |
| C[N+](C)(C)CC(=O)N/N=C/c1oc(-c2cccc([N+](=O)[O-])c2)c(-c2cccc([N+](=O)[O-])c2)c1[N+](=O)[O-] | GI50 | > 100 µM (inactive) |

* * *

System: Malme-3M
Assay: NCI tumour cell line growth inhibition, 48 h
The source made the active and inactive calls. No stated cut-off is given here; in the data, active = GI50 up to about 1.1 µM and inactive = higher.
Outcomes: Y = active, N = inactive

| molecule | classification |
| --- | --- |
| O=C(Nc1ccc(Cl)cc1Cl)OC(Cn1cncn1)c1ccc(Cl)cc1Cl (configuration not stated) | N |
| CCOc1ccc(NC(=O)C2=C(C)NC(C)=C(C(=O)Nc3ccc(OCC)cc3)C2c2ccccc2)cc1 | N |
| Cc1cccc2c(N)c3cccc(C(=O)NCCN(C)C)c3nc12 | Y |
| CC(=O)c1c(P(=O)(OC(C)C)OC(C)C)nn(-c2ccc([N+](=O)[O-])cc2)c1C | N |
| CCOC(=O)CCC(NC(=O)OCc1ccccc1)C(=O)NC(CCC(=O)OCC)C(=O)NNC(=O)OC(C)(C)C (configuration not stated) | N |
| Cc1c(Cl)cccc1NC(=O)c1cccc([N+](=O)[O-])c1O | N |
| Cc1ccc(S(=O)(=O)N2CCC(C(=O)O)(c3ccccc3)CC2)cc1 | N |
| O=C(OC1C(Oc2ccccc2COC(=O)C2(O)C=CCCC2=O)OC(CO)C(O)C1O)c1ccccc1 (configuration not stated) | N |
| O=S(O)CCCSSc1ccccc1 | N |
| Cc1cn(C2CC(O)C(CO)O2)c(=O)n2nnnc12 (configuration not stated) | N |
| COC(=O)c1ccc(NCc2cc(O)ccc2O)cc1 | N |
| Nc1nc(CCC(=O)Nc2cccc(C(F)(F)F)c2)cc(-c2cccc3ccccc23)n1 | N |
| COC(=O)c1ccc(CCC2=CC(=O)C(Br)=CC2=O)cc1 | N |
| CC(=O)SCCC(NC(=S)Nc1ccccc1)P(=O)(Oc1ccccc1)Oc1ccccc1 (configuration not stated) | N |
| COC1/C=C\C=C(/C)C(=O)NC2=CC(=O)C(NCCCl)=C(CC(C)CC(OC)C(O)C(C)/C=C(/C)C1OC(N)=O)C2=O (configuration not stated) | Y |
| N#CC(C#N)C(c1ccccc1)c1ccccc1 | N |
| CC(C)(C)OC(=O)NCCCNC1(c2cc3ccccc3s2)CCCCC1 | N |
| CCN(CC)Cc1cc(Nc2c3ccccc3nc3c4ccccc4n(C)c23)cc(CN(CC)CC)c1O | N |
| CC(C(=O)c1ccccc1)C(c1ccccc1)N1CCOCC1 (configuration not stated) | N |
| CCN(CC)C(=O)COc1ccc(Br)cc1Br | N |
| CCCSC1=N/C(=C\c2ccco2)C(=O)N1 | N |
| Cc1nn(C(=O)Cc2ccccc2)c2c1C(c1ccccc1[N+](=O)[O-])SC(=N)N2 (configuration not stated) | N |
